Kindly state IC50 for each of the entries shown.
Target: CDK6/CCND1 (Homo sapiens)
Sequence (Q00534 whole entry): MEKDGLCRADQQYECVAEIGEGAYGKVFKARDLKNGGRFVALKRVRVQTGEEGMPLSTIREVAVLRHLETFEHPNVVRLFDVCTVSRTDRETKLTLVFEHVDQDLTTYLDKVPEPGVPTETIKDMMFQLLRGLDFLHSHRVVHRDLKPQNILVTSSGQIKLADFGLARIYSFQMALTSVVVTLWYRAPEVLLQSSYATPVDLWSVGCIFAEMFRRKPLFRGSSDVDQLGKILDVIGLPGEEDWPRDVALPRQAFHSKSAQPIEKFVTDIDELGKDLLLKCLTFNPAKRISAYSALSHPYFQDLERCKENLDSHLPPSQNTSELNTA
Sequence (P24385 whole entry partner): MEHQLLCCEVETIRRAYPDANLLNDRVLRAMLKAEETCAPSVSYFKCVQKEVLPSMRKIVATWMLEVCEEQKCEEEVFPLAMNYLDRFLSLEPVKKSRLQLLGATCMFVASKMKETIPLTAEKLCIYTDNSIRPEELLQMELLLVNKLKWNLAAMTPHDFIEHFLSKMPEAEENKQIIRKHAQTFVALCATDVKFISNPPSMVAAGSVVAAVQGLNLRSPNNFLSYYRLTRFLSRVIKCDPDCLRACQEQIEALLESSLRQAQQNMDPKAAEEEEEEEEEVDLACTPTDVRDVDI
Assay: CDK6 homogeneous time-resolved fluorescence (HTRF) kinase assay
Type: biochemical
Conditions: >250 nM; CDK6/CCND; 1 mM ATP; read-out: CDK6/CCND IC50, >250 nM
Experimental: A CDK homogeneous time-resolved fluorescence (HTRF) assay was used to assess the potency of the compounds described herein. To an untreated 384-well microtiter plate (ProxiPlate) was added 100 nL 100×test compound in DMSO and 5 μL 2×CDK enzyme in assay buffer (50 mM HEPES, 1 mM EGTA, 10 mM MgCl2, 0.01% Tween 20, 2 mM DTT). […] Fluorescence was read at 340 nm excitation and 665 nm emission on an EnVision 2105 fluorescence reader. […] Using this assay, the IC50 values of example compounds were determined. […]

Give recorded IC50. Cc1c(-c2nccc3cnc(Nc4ccc(S(=O)(=O)Nc5nncn5C)cc4)cc23)ccc2c1cnn2CC(C)(C)O
> 250 nM

Give recorded IC50. Cc1c(-c2nccc3cnc(Nc4ccc(S(=O)(=O)Nc5cc(C(F)(F)F)ccn5)cc4)cc23)ccc2c1cnn2CC(C)(C)O
> 250 nM

Give recorded IC50. COc1cnc(NS(=O)(=O)c2ccc(Nc3cc4c(-c5ccc6c(cnn6CC(O)(C(F)(F)F)C(F)(F)F)c5C)nccc4cn3)cc2)cc1N1CCOCC1
> 250 nM

###

Kindly state IC50 for each of the entries shown.
Molecular target: CDK2/CCNE1 (Homo sapiens)
Experiment: CDK2 homogeneous time-resolved fluorescence (HTRF) kinase assay
Type: biochemical
Details: CDK2/CCNE; x = IC50 <25 nM; read-out: CDK2/CCNE IC50 (<25 nM)

Give recorded IC50. CS(=O)(=O)c1ccc(Nc2cc3c(C#Cc4ccc(C#N)cc4C(F)(F)F)nccc3cn2)cc1
< 25 nM

Give recorded IC50. CC(C)S(=N)(=O)c1ccc(Nc2cc3c(C#Cc4ccc5c(c4)NC(=O)C54CC4)nccc3cn2)cc1 (single isomer, unassigned)
< 25 nM

Give recorded IC50. CS(=N)(=O)c1ccc(Nc2cc3c(C#Cc4ccc(=O)[nH]n4)nccc3cn2)cc1 (racemic)
< 25 nM

Give recorded IC50. CS(=O)(=O)c1ccc(Nc2cc3c(C#Cc4cnncc4N)nccc3cn2)cc1
< 25 nM

Give recorded IC50. CCC1(CC)C(=O)Nc2cc(C#Cc3nccc4cnc(Nc5ccc(S(=O)(=O)CC)cc5C)cc34)ccc21
< 25 nM

Give recorded IC50. CC1(C)C(=O)Nc2cc(C#Cc3nccc4cnc(Nc5ccc(S(=O)(=O)C6CC6)cc5)cc34)ccc21
< 25 nM

Give recorded IC50. Cc1c(-c2nccc3cnc(Nc4ccc(S(C)(=O)=O)cc4)cc23)ccc2c1cnn2CC(N)=O
< 25 nM

Give recorded IC50. CS(=O)(=O)c1ccc(Nc2cc3c(-c4ccc5c(c4)C(=O)C(=O)N5)nccc3cn2)cc1
< 25 nM

Give recorded IC50. Cc1c(-c2nccc3cnc(Nc4ccc(S(C)(=O)=O)cc4)cc23)ccc2c1ccn2CCO
< 25 nM

Give recorded IC50. CS(=O)(=O)c1ccc(Nc2cc3c(C#Cc4ccc5nc[nH]c5c4)nccc3cn2)cc1
< 25 nM

Give recorded IC50. CNS(=O)(=O)c1ccc(Nc2cc3c(C#Cc4cccnc4N)nccc3cn2)c(F)c1
< 25 nM

Give recorded IC50. Cc1c(-c2nccc3cnc(Nc4ccc(S(C)(=O)=O)c(O)c4)cc23)ccc2c1cnn2CCO
< 25 nM

Give recorded IC50. CC1(C)C(=O)Nc2cc(C#Cc3nccc4cnc(Nc5ccc(S(=O)(=O)NC6CCC6)cc5)cc34)ccc21
< 25 nM

Give recorded IC50. CC(C)S(=N)(=O)c1ccc(Nc2cc3c(C#Cc4cc5c(cc4N)C(C)(C)C(=O)N5)nccc3cn2)cc1 (single isomer, unassigned)
< 25 nM

Give recorded IC50. CS(=O)(=O)c1ccc(Nc2cc3c(C#Cc4ccc(O)cc4F)nccc3cn2)cc1
< 25 nM

Give recorded IC50. Nc1ncccc1C#Cc1nccc2cnc(Nc3ccc(S(=O)(=O)NC4CCOCC4)cc3)cc12
< 25 nM

###

Biological target: CDK1/CCNB1 (Homo sapiens)
Sequence (P06493 whole entry): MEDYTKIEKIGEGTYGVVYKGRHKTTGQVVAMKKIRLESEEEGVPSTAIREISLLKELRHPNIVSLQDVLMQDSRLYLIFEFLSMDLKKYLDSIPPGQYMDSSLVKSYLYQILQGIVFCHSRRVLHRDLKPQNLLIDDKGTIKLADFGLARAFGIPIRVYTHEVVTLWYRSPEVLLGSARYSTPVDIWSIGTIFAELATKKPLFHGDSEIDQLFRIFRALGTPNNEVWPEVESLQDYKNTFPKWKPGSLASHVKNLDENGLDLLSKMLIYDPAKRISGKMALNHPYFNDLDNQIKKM
Sequence (P14635 whole entry partner): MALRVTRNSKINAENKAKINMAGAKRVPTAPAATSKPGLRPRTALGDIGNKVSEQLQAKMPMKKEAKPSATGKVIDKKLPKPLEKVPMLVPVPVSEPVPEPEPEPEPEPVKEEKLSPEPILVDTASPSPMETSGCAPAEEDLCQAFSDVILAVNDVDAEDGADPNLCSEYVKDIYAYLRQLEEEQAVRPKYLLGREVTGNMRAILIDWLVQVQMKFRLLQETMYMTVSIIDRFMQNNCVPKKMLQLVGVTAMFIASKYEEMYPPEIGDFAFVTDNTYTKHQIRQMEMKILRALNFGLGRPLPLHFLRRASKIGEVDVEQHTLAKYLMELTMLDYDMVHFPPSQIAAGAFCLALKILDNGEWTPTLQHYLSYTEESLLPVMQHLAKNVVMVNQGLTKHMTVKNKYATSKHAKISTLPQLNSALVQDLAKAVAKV
Experiment: CDK1 homogeneous time-resolved fluorescence (HTRF) kinase assay
Type: biochemical
Settings: 0.5 nM CDK1/CCNB1, 1 mM ATP; read-out: CDK1/CCNB IC50 25-250 nM
Kindly state IC50 for each of the entries shown.

Give recorded IC50. Cc1c(-c2nccc3cnc(Nc4ccc(S(C)(=O)=O)cc4)nc23)ccc2c1cnn2CCO
25 to 250 nM

Give recorded IC50. CS(=O)(=O)c1ccc(Nc2ncc3ccc(C#N)c(N4CCC(C#N)CC4)c3n2)cc1
25 to 250 nM

Give recorded IC50. CS(=O)(=O)c1ccc(Nc2ncc3ccnc(C4=CCCCC4)c3n2)cc1
25 to 250 nM

Give recorded IC50. Cc1c(-c2c(C#N)ccc3cnc(Nc4ccc(S(C)(=O)=O)cc4)nc23)ccc2nn(C)cc12
25 to 250 nM

Give recorded IC50. Cc1c(-c2c(C#N)ccc3cnc(Nc4ccc(S(C)(=O)=O)cc4)nc23)ccc2c1cnn2CCO
25 to 250 nM

###

Biological target: CDK6/CCND1 (Homo sapiens)
Assay: CDK6 homogeneous time-resolved fluorescence (HTRF) kinase assay
Format: biochemical
Conditions: CDK6/CCND; x = IC50 >250 nM; read-out: CDK6/CCND IC50 (>250 nM column)
Method: A CDK homogeneous time-resolved fluorescence (HTRF) assay was used to assess the potency of the compounds described herein. To an untreated 384-well microtiter plate (ProxiPlate) was added 100 nL 100×test compound in DMSO and 5 μL 2×CDK enzyme in assay buffer (50 mM HEPES, 1 mM EGTA, 10 mM MgCl2, 0.01% Tween 20, 2 mM DTT). […] Fluorescence was read at 340 nm excitation and 665 nm emission on an EnVision 2105 fluorescence reader. […] Using this assay, the IC50 values of example compounds were determined. […]
pIC50: −log10 of the molar value.
Kindly state pIC50 for each of the entries shown.

// fetch pIC50; item: CS(=O)(=O)c1ccc(Nc2cc3c(C#Cc4ccc5[nH]ncc5c4)nccc3cn2)cc1 ; system: CDK6/CCND1 (Homo sapiens)
< 6.60

// fetch pIC50; item: COC(=O)c1cc2ccc(C#Cc3nccc4cnc(Nc5ccc(S(C)(=O)=O)cc5)cc34)cc2[nH]1 ; system: CDK6/CCND1 (Homo sapiens)
< 6.60

// fetch pIC50; item: CS(=O)(=O)c1ccc(Nc2cc3c(C#Cc4cccn5ncnc45)nccc3cn2)cc1 ; system: CDK6/CCND1 (Homo sapiens)
< 6.60

// fetch pIC50; item: CS(=O)(=O)c1ccc(Nc2cc3c(C#Cc4cnc(N)cn4)nccc3cn2)cc1 ; system: CDK6/CCND1 (Homo sapiens)
< 6.60

// fetch pIC50; item: CS(=O)(=O)c1ccc(Nc2cc3c(C#Cc4cccnc4N)nccc3cn2)c(F)c1 ; system: CDK6/CCND1 (Homo sapiens)
< 6.60

// fetch pIC50; item: Cc1ncccc1C#Cc1nccc2cnc(Nc3ccc(S(C)(=O)=O)cc3)cc12 ; system: CDK6/CCND1 (Homo sapiens)
< 6.60

// fetch pIC50; item: CS(=O)(=O)c1ccc(Nc2cc3c(C#Cc4ccc(N5CCOCC5)nc4)nccc3cn2)cc1 ; system: CDK6/CCND1 (Homo sapiens)
< 6.60

// fetch pIC50; item: N#Cc1ccc(C#Cc2nccc3cnc(Nc4ccc(S(=O)(=O)CCN5CCOCC5)cc4)cc23)cc1 ; system: CDK6/CCND1 (Homo sapiens)
< 6.60

// fetch pIC50; item: CS(=O)(=O)c1ccc(Nc2cc3c(C#Cc4ccc(Cl)cn4)nccc3cn2)cc1 ; system: CDK6/CCND1 (Homo sapiens)
< 6.60

// fetch pIC50; item: CS(=O)(=O)c1ccc(Nc2cc3c(C#Cc4cc(CO)cnc4N)nccc3cn2)cc1 ; system: CDK6/CCND1 (Homo sapiens)
< 6.60

// fetch pIC50; item: Cc1cc(C#Cc2nccc3cnc(Nc4ccc(S(C)(=O)=O)cc4)cc23)n[nH]1 ; system: CDK6/CCND1 (Homo sapiens)
< 6.60

// fetch pIC50; item: CS(=O)(=O)c1ccc(Nc2cc3c(C#Cc4n[nH]c5c4CCC5)nccc3cn2)cc1 ; system: CDK6/CCND1 (Homo sapiens)
< 6.60

// fetch pIC50; item: CS(=N)(=O)c1ccc(Nc2cc3c(C#Cc4ccc(C#N)cc4)nccc3cn2)cc1 (racemic) [Ex 526] ; system: CDK6/CCND1 (Homo sapiens)
< 6.60

// fetch pIC50; item: CS(=O)(=O)c1ccc(Nc2cc3c(C#Cc4ccc5cn[nH]c5c4)nccc3cn2)cc1 ; system: CDK6/CCND1 (Homo sapiens)
< 6.60

// fetch pIC50; item: CS(=O)(=O)c1ccc(Nc2cc3c(C#Cc4ccc(C#N)cc4F)nccc3cn2)cc1 ; system: CDK6/CCND1 (Homo sapiens)
< 6.60

// fetch pIC50; item: CCS(=O)(=O)c1ccc(Nc2cc3c(C#Cc4ccc5c(c4)NC(=O)C5(C)C)nccc3cn2)cc1 ; system: CDK6/CCND1 (Homo sapiens)
< 6.60

// fetch pIC50; item: CS(=O)(=O)c1ccc(Nc2cc3c(C#Cc4cnc(C#N)nc4)nccc3cn2)cc1 ; system: CDK6/CCND1 (Homo sapiens)
< 6.60
